Listing of recorded pIC50 by entry.
# EXPERIMENTAL_SYSTEM: BCR-FMS BaF3 cells (Homo sapiens)
# Construct: fused on or other part: P11274 (Breakpoint cluster region protein)
# Sequence (P07333 582-910): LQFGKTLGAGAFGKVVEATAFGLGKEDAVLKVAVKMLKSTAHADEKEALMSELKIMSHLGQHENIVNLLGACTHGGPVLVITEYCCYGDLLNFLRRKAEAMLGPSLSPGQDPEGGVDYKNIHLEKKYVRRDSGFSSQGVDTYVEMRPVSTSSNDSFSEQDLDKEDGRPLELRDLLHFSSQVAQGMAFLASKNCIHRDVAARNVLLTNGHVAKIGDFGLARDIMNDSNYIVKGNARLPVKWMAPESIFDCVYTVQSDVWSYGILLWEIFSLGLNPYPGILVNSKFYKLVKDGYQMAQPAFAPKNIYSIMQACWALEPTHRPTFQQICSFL
# EXPERIMENTAL_DETAILS: BaF3 BCR-FMS cell proliferation assay (ATPlite)
# SETTINGS: read-out: Inhibition of Cell Proliferation IC50, BCR/BaF3 Fms
pIC50: −log10 of the molar value.

{"columns": ["COMPOUND", "pIC50"],
 "data": [
  ["CCc1ccc(Nc2ccc(C(=O)c3c[nH]c4ncnc(N[C@@H](C)c5ccc(F)cc5)c34)c(F)n2)cn1", "> 7.00"],
  ["CCOc1ccc(Nc2ccc(C(=O)c3c[nH]c4ncnc(OC)c34)c(F)n2)cn1", "> 7.00"],
  ["Fc1nc(NC2CCC(F)(F)CC2)ccc1Cc1c[nH]c2ncnc(NC3CC3)c12", "> 7.00"],
  ["CCNc1ncnc2[nH]cc(C(=O)c3ccc(Nc4ccc(C5CC5)nc4)nc3F)c12", "> 8.00"],
  ["COCCOc1ncnc2[nH]cc(Cc3ccc(Nc4ccc(OC)nc4)nc3F)c12", "> 8.00"],
  ["O=C(c1ccc(NC2CCC(F)(F)CC2)nc1Cl)c1c[nH]c2ncnc(NC3CC3)c12", "> 7.00"],
  ["CCn1cc(Nc2ncc(Cc3c[nH]c4ncc(C)cc34)cn2)cn1", "> 8.00"],
  ["COc1ccc(Nc2ccc(C(=O)c3c[nH]c4ncnc(NCc5ccc(C(F)(F)F)nc5)c34)c(F)n2)cn1", "> 7.00"],
  ["Fc1nc(Nc2ccc(C3CC3)nc2)ccc1Cc1c[nH]c2ncnc(NCC(F)(F)F)c12", "> 8.00"],
  ["CCc1ccc(Nc2ccc(C(=O)c3c[nH]c4ncnc(NC5CCOCC5)c34)c(F)n2)cn1", "> 8.00"],
  ["Fc1nc(NC2CCC(F)(F)CC2)ccc1Cc1c[nH]c2ncnc(NCC(F)(F)F)c12", "> 7.00"],
  ["Clc1cnc2[nH]cc(Cc3cnc(Nc4ccccc4Cl)nc3)c2c1", "> 6.00"],
  ["Cc1cncc(Nc2ccc(Cc3c[nH]c4ncnc(C5CC5)c34)c(F)n2)c1", "> 7.00"],
  ["CCC(C)Nc1ncnc2[nH]cc(C(=O)c3ccc(Nc4ccc(OC)nc4)nc3F)c12 (stereo not shown)", "> 8.00"],
  ["CCc1ccc(Nc2ccc(Cc3c[nH]c4ncnc(C5CC5)c34)c(F)n2)cn1", "> 8.00"],
  ["CCc1ccc(Nc2ccc(C(=O)c3c[nH]c4ncnc(NC5CCC5)c34)c(F)n2)cn1", "> 8.00"],
  ["CCc1ccc(Nc2ccc(C(=O)c3c[nH]c4ncnc(NC(C)C)c34)c(F)n2)cn1", "> 8.00"],
  ["Clc1cnc2[nH]cc(Cc3cnc(NC4CCCCC4)nc3)c2c1", "> 7.00"],
  ["CCc1ccc(Nc2ccc(C(=O)c3c[nH]c4ncnc(N)c34)c(F)n2)cn1", "> 7.00"],
  ["COc1cncc(Nc2ccc(C(=O)c3c[nH]c4ncnc(NC(C)C)c34)c(F)n2)c1", "> 7.00"],
  ["COc1ncnc2[nH]cc(Cc3ccc(Nc4ccc(C5CC5)nc4)nc3F)c12", "> 8.00"],
  ["O=C(c1ccc(Nc2ccc(C3CC3)nc2)nc1F)c1c[nH]c2ncnc(C3CC3)c12", "> 7.00"],
  ["Cc1ccc(Nc2ccc(C(=O)c3c[nH]c4ncnc(NCC5CC5)c34)c(F)n2)cn1", "> 8.00"],
  ["Cc1ccc(Nc2ccc(C(=O)c3c[nH]c4ncc(Cl)cc34)c(F)n2)cn1", "> 7.00"],
  ["Cc1ccc(Nc2ccc(C(=O)c3c[nH]c4ncnc(C5CC5)c34)c(F)n2)cn1", "> 7.00"],
  ["Nc1ncnc2[nH]cc(C(=O)c3ccc(Nc4ccc(C5CC5)nc4)nc3F)c12", "> 8.00"],
  ["CCc1ccc(Nc2ccc(Cc3c[nH]c4ncnc(C)c34)c(F)n2)cn1", "> 8.00"],
  ["CCOc1ccc(Nc2ccc(C(=O)c3c[nH]c4ncnc(C)c34)c(F)n2)cn1", "> 7.00"]
]}
